Target: B. cereus 5/B/6 metallo-β-lactamase (Bacillus cereus, UniProt P14488)
Sequence (P14488 29-256, looked up, natural form): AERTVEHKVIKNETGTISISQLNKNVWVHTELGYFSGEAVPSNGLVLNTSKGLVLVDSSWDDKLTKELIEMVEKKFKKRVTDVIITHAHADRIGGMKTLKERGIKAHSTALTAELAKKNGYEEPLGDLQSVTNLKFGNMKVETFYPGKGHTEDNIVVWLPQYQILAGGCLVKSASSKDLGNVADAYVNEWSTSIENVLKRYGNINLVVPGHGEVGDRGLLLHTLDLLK
Details: read-out: IC50 for B. cereus 5/B/6 metallo-β-lactamase in the presence of Zn2+ ions; […] cephalosporin C, 50 mM MOPS and 1 mM ZnSO4, pH 7.0
Description: Assay of the purified B. cereus 5/B/6 metallo-β-lactamase and B. cereus 569/H/9 β-lactamase I. Metallo-β-lactamase activity assays using cephalosporin C as substrate were determined as previously reported (Myers and Shaw, 1989). The cephalosporin C absorbance maximum at 260 nm was monitored as a function of time (Davies et al., 1974). […] Reversible inhibition studies for metallo-β-lactamase. […] The enzyme activity remaining was determined (Myers and Shaw, 1989). […]
recorded.endpoint: pIC50
One number for each entry, as −log10 of the molar value.

Record 5′-UGGCUGCAGGGUCUGGCCCCCCGUUUGGUG-3′ (UGGCUGCAGGGUCUGGCCCCCCGUUUGGUG; chemistry not given here) [30-mer RNA] . Reported pIC50: 4.71

---

Biological target: B. cereus 5/B/6 metallo-β-lactamase (Bacillus cereus)
Conditions: read-out: Ki′ (dissociation constant for the inhibitor from the enzyme-substrate-inhibitor complex); steady-state kinetics, intercept replot
recorded.endpoint: Ki (nM)
One number for each entry, in nM.

Record 5′-UGGCUGCAGGGUCUGGCCCCCCGUUUGGUG-3′ (UGGCUGCAGGGUCUGGCCCCCCGUUUGGUG; chemistry not given here) [30-mer RNA] . Reported Ki: 15

---

Biological target: B. cereus 5/B/6 metallo-β-lactamase (Bacillus cereus, UniProt P14488)
Settings: read-out: Ki (dissociation constant for the inhibitor from the enzyme-inhibitor complex); steady-state kinetics, slope replot
recorded.endpoint: Ki (nM)
Answers are plain numbers, in nM.

Record 5′-UGGCUGCAGGGUCUGGCCCCCCGUUUGGUG-3′ (UGGCUGCAGGGUCUGGCCCCCCGUUUGGUG; chemistry not given here) [30-mer RNA] . Reported Ki: 2
